biological target: Nanoluciferase-BRD9 fusion protein (Homo sapiens (Human), UniProt Q9H8M2); assay: SYO1 BRD9 NanoLuc degradation assay; assay type: cell-based; details: Table 5B; SYO-1 cells expressing 3×FLAG-NLuc-BRD9, 6 hours; read-out: SYO1 BRD9-NanoLuc degradation IC50
Sequence (Q9H8M2 whole entry, the tested form may be a part): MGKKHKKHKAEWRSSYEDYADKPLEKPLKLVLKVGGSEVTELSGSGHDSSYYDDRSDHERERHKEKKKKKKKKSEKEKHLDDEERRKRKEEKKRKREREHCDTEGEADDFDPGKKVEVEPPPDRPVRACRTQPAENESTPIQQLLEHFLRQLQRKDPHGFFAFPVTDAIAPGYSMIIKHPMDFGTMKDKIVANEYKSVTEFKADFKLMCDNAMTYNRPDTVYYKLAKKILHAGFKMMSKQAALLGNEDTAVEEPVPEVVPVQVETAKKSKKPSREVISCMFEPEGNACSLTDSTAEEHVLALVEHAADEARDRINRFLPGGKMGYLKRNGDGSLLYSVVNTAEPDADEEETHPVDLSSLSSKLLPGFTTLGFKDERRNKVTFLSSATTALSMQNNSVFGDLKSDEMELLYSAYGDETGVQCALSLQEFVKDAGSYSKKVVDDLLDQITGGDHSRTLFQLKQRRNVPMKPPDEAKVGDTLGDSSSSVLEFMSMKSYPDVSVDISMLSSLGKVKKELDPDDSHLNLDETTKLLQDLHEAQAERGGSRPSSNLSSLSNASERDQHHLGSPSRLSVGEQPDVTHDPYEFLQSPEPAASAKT
Items are presented alongside their recorded DC50.

compound	DC50
COc1cc(-c2cn(C)c(=O)c3cnccc23)cc(OC)c1CN(C)CCCCN1CCC2(CC1)CCN(c1ccc3c(c1)C(=O)N(C1CCC(=O)NC1=O)C3=O)C2 (stereo not shown)	< 10 nM
COc1cc(-c2cn(C)c(=O)c3cnccc23)cc(OC)c1CN(C)C(=O)CCCCN1CC(Oc2ccc3c(c2)C(=O)N(C2CCC(=O)NC2=O)C3=O)C1 (stereo not shown)	< 10 nM
COc1cc(-c2cn(C)c(=O)c3cnccc23)cc(OC)c1CN1CC(CC(=O)N2CCC3(CC2)CC(Oc2ccc4c(c2)C(=O)N(C2CCC(=O)NC2=O)C4=O)C3)C1 (stereo not shown)	< 10 nM
COc1cc(-c2cn(C)c(=O)c3cnccc23)cc(OC)c1CN1CC(N2CCN(c3ccc4c(c3)C(=O)N(C3CCC(=O)NC3=O)C4=O)CC2)C1 (stereo not shown)	< 10 nM

Lab note: need DC50 for COc1cc(-c2cn(C)c(=O)c3cn(C)nc23)cc(OC)c1CN1CC(CN2CCC3(CC2)CN(c2ccc4c(c2)CN(C2CCC(=O)NC2=O)C4=O)C3)C1 (stereo not shown) on Nanoluciferase-BRD9 fusion protein (Homo sapiens (Human), UniProt Q9H8M2), anyone have it?
< 10 nM

Lab note: need DC50 for COc1cc(-c2cn(C)c(=O)c3cnccc23)cc(OC)c1CN1CCN(CC#Cc2ccc3c(c2)C(=O)N(C2CCC(=O)NC2=O)C3=O)CC1 (stereo not shown) on Nanoluciferase-BRD9 fusion protein (Homo sapiens (Human), UniProt Q9H8M2), anyone have it?
< 10 nM

Lab note: need DC50 for COc1cc(-c2cn(C)c(=O)c3cnccc23)cc(OC)c1CN(C)CC(=O)NCCN1Cc2cc3c(cc2C1)C(=O)N(C1CCC(=O)NC1=O)C3=O (stereo not shown) on Nanoluciferase-BRD9 fusion protein (Homo sapiens (Human), UniProt Q9H8M2), anyone have it?
10 to 100 nM

Lab note: need DC50 for COc1cc(-c2cn(C)c(=O)c3cnccc23)cc(OC)c1CN(C)CC(=O)NCCCCCOc1ccc(-c2ccc3c(c2)C(=O)N(C2CCC(=O)NC2=O)C3=O)cc1 (stereo not shown) on Nanoluciferase-BRD9 fusion protein (Homo sapiens (Human), UniProt Q9H8M2), anyone have it?
< 10 nM

Lab note: need DC50 for COc1cc(-c2cn(C)c(=O)c(C)c2C)cc(OC)c1CN1CC(CN2CCC3(CC2)CN(c2ccc4c(c2)C(=O)N(C2CCC(=O)NC2=O)C4=O)C3)C1 (stereo not shown) on Nanoluciferase-BRD9 fusion protein (Homo sapiens (Human), UniProt Q9H8M2), anyone have it?
< 10 nM

Lab note: need DC50 for COc1cc(-c2cn(C)c(=O)c3cnccc23)cc(OC)c1CN1CC(CC(=O)NC2CC3(CCN(c4ccc5c(c4)C(=O)N(C4CCC(=O)NC4=O)C5=O)CC3)C2)C1 (stereo not shown) on Nanoluciferase-BRD9 fusion protein (Homo sapiens (Human), UniProt Q9H8M2), anyone have it?
< 10 nM

Lab note: need DC50 for COc1cc(-c2cc(C)c(=O)n(C)n2)cc(OC)c1CN1CCC2(CC1)CN(c1ccc3c(c1)CN(C1CCC(=O)NC1=O)C3=O)C2 (stereo not shown) on Nanoluciferase-BRD9 fusion protein (Homo sapiens (Human), UniProt Q9H8M2), anyone have it?
< 10 nM

Lab note: need DC50 for COc1cc(-c2cn(C)c(=O)c3cnccc23)cc(OC)c1CN1CC(CC(=O)N2CCCC3(CC(Oc4ccc5c(c4)C(=O)N([C@@H]4CCC(=O)NC4=O)C5=O)C3)C2)C1 (stereo partly shown) on Nanoluciferase-BRD9 fusion protein (Homo sapiens (Human), UniProt Q9H8M2), anyone have it?
10 to 100 nM

Lab note: need DC50 for COc1cc(-c2cn(C)c(=O)c3cnccc23)cc(OC)c1CN1CCC(n2cc(COc3ccc4c(c3)C(=O)N(C3CCC(=O)NC3=O)C4=O)cn2)CC1 (stereo not shown) on Nanoluciferase-BRD9 fusion protein (Homo sapiens (Human), UniProt Q9H8M2), anyone have it?
< 10 nM

Lab note: need DC50 for COc1cc(-c2cn(C)c(=O)c3cnccc23)cc(OC)c1CN(C)CCOCCn1cc(CN2CC(Oc3ccc4c(c3)C(=O)N(C3CCC(=O)NC3=O)C4=O)C2)nn1 (stereo not shown) on Nanoluciferase-BRD9 fusion protein (Homo sapiens (Human), UniProt Q9H8M2), anyone have it?
100 to 1000 nM
